- Method Notes: In vivo disposition after oral administration to rats
- Condition Details: rat, serum, 40 mg/kg, Serum 1-day, 40 mg/kg oral, Rat 2
Experimental Endpoint: concentration at 1 day (ng/mL)
Give just the number in ng/mL; leave the unit off.

Please give the measured concentration at 1 day for this molecule: COc1cc(/C=C/c2ccc(N)cc2)cc(OC)c1 [Compound 5, (E)-4-(3,5-dimethoxystyryl)aniline]
2900

====

- Method Notes: In vivo disposition after oral administration to rats
- Condition Details: rat, liver, 40 mg/kg, 40 mg/kg oral for three days, Rat 1
Experimental Endpoint: concentration at 24 h (ng/g)
Number in ng/g, nothing else.

Tell me the measured concentration at 24 h of COc1cc(/C=C/c2ccc(N)cc2)cc(OC)c1 [Compound 5, (E)-4-(3,5-dimethoxystyryl)aniline] , please.
4680

====

- Tested On: NFκB
- Method Notes: NFκB luciferase assay
- Condition Details: read-out: NFκB IC50; TNF-induced NFκB luciferase, 293 cells; […]
Experimental Endpoint: IC50 (µM)
Your answer should be a plain number; it is taken to be in µM.

Item under review: Cc1ccc(S(=O)(=O)N[C@@H](Cc2ccccc2)C(=O)CCl)cc1 . Reported IC50?
5

====

- Method Notes: Caco-2 cell monolayer permeability
- Condition Details: human, Caco-2, pH 7.4
Experimental Endpoint: Papp B→A at 60 min, 50 μM (nm/s)
Entry rule: numbers only, all in nm/s.

Recorded Papp B→A at 60 min, 50 μM of COc1cc(/C=C/c2ccc(N)cc2)cc(OC)c1 [Compound 5, (E)-4-(3,5-dimethoxystyryl)aniline] , please.
122

====

Experimental Endpoint: pIC50
FYI, pIC50 means -log10 of a concentration in mol per litre.

Form field: pIC50 recorded for O=S(=O)(O)Oc1ccc(C=Cc2cc(O)cc(O)c2)cc1 [Compound 15] with UniProtKB P16083 (enter value)
Sequence (P16083 whole entry): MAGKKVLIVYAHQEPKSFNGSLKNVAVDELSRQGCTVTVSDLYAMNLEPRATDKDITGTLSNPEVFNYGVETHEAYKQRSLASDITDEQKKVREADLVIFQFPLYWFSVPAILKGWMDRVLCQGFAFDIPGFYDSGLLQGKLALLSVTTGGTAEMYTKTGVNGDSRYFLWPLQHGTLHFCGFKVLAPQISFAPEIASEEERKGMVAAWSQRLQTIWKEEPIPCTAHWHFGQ
4.47

====

- Method Notes: In vivo disposition after oral administration to rats
- Condition Details: rat, liver, 40 mg/kg, 40 mg/kg oral for three days, Rat 2
Experimental Endpoint: concentration at 24 h
Entry format: amount then unit.

Could you tell me which concentration at 24 h is on file for COc1cc(/C=C/c2ccc(N)cc2)cc(OC)c1 [Compound 5, (E)-4-(3,5-dimethoxystyryl)aniline] ?
9880 ng/g

====

Target chain: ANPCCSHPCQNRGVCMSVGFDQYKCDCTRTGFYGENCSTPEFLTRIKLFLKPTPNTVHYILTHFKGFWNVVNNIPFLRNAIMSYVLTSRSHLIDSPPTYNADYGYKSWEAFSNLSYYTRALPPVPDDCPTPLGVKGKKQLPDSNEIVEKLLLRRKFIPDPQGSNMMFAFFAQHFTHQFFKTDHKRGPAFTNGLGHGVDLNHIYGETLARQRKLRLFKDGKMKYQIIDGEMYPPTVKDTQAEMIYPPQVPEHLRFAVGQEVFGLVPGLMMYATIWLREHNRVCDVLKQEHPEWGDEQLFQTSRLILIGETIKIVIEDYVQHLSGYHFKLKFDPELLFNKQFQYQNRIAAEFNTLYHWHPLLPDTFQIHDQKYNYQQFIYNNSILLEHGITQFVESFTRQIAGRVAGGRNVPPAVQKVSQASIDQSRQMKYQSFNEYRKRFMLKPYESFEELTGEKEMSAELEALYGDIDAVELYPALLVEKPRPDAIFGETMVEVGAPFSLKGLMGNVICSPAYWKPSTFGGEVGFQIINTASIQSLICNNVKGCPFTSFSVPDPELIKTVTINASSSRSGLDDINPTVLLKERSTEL
Experimental Endpoint: pIC50
Scale explanation: pIC50 corresponds to minus log10 of a concentration expressed in moles per litre.

Look at this compound and give its reported pIC50. COc1cc(/C=C/c2ccc(N)cc2)cc(OC)c1 [Compound 5, (E)-4-(3,5-dimethoxystyryl)aniline]
4.91
